Biological target: T1, Bfl-1, Q16548
T1 chain: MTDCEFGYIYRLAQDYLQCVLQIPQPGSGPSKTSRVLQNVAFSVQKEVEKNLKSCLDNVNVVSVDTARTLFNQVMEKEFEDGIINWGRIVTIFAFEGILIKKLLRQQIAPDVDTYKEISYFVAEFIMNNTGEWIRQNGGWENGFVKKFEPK
Assay: peptide SPOT array, c-Myc-tagged receptor at 1 uM or 100 nM, anti-c-Myc-Cy3
Parameter: SPOT signal as a fraction of Bim BH3's signal on the same receptor and array. Scope: all listed entries.
Please reply with the value in numeric form only.

Completed entries (count: 6):
| binder | observedMeasurement |
| --- | --- |
| VDSIRPKCQEDRHLCDQFSAEIARRR [MCF2L] | 0.1 |
| LSIIYTLVEIDQNIGDTNLADFTAGL [SLC26A4] | 0.03 |
| SDIRDDISEQDRHVGRTVRGHPRKKL [TMEM184C] | 0.14 |
| EVLAGPLAQRLSHIAEDVGRLVKKSR [ARHGAP4] | 0.4 |
| QEQEQHVPFDIHTYGDQLVSRFPQLN [NCAPH2] | 0.05 |
| KWTAEEVVLWLEQLGPWASLYRERFL [BFAR] | 0.04 |

Reported SPOT signal as a fraction of Bim BH3's signal on the same receptor and array, binder MSLFLRVVFSFTMFGDLFEEEYSTVS [USP40] : ____
0.04
